# assay_info: A CellTox Green Cytotoxicity Assay to monitor cytotoxicity in HEK293 cells - 32 hour (AID 1224881); also: nearly all actives have a fitted effect of over 40% in size
# experimental_parameters: CellTox Green fluorescence; series mostly up to 35.3 µM
Records with an inconclusive call do not appear. Activity calls are given as the source filed them. Calls follow the shape of the dose curve; as a rule, active = well fitted activation curve with a large enough effect in the repeat runs; inconclusive = weak or mixed curves; inactive = flat fitted curve, though single readings scatter.
Outcomes: active, inactive

1. CC(C)(c1ccc(O)cc1)c1ccc(O)cc1 : inactive
2. Oc1ccc(C2CNCCc3c2cc(O)c(O)c3Cl)cc1 (configuration not stated) : inactive
3. CCc1nccnc1CC : inactive
4. O=C(c1ccccc1)C1CCCCC1 : active
5. COCCc1ccc(OCC(O)CNC(C)C)cc1 (configuration not stated) : inactive
6. C[C@@H]1CCN(C(=O)[C@H](CCCN=C(N)N)NS(=O)(=O)c2cccc3c2NC[C@H](C)C3)[C@@H](C(=O)O)C1 : inactive
7. O=C(CCCN1CCN(c2ccccn2)CC1)c1ccc(F)cc1 : inactive
8. CCCCCCOC(=O)CCCCC(=O)OCCCCCC : inactive
9. COc1nc(N)nc2c1ncn2[C@@H]1O[C@H](CO)[C@@H](O)[C@@H]1O : inactive
10. C=C[Si](OC(=C)C)(OC(=C)C)OC(=C)C : inactive
11. N[C@H]1CN(c2c(F)cc3c(=O)c(C(=O)O)cn(C4C[C@H]4F)c3c2Cl)CC12CC2 (some centres not stated) : inactive
12. c1cnc(N2CCN(Cc3ccc4c(c3)OCO4)CC2)nc1 : inactive

----------
# assay_info: qHTS assay for small molecule disruptors of the mitochondrial membrane potential (AID 720635); also: % is scaled to controls: 0 for no effect and ±100 for the full control effect
# experimental_parameters: HepG2 mitochondrial membrane potential, Mito-MPS dye ratio; series mostly up to 83.2 µM
Results filed as inconclusive are left out. Activity calls are given as the source filed them. Calls follow the shape of the dose curve; as a rule, active = well fitted inhibition curve with a large enough effect in the signal ratio in the repeat runs; inconclusive = weak or mixed curves, or effect the other way; inactive = flat fitted curve, though single readings scatter; the % refers to the signal ratio.
endpoint_name: ratio activity, negative = MMP loss

1. C=CCOCC(CC)(CO)COCC=C : inactive
2. CCCCCCCCCCCCCCCCC : inactive
3. COCCc1ccc(OCC(O)CNC(C)C)cc1 (stereo not given) : inactive
4. CCO[Si](CCC1CCC2OC2C1)(OCC)OCC (stereo not given) : inactive
5. COCCCOCCCOC : inactive
6. CCCCCCCCCCCCCC=O : 25.8% [at 8.08 µM] (inactive)
7. CCOC(=O)c1cccc(N)c1 : inactive
8. CC(=O)OCC(=O)[C@@]1(O)CCC2C3CCC4=CC(=O)CC[C@]4(C)C3[C@@H](O)C[C@@]21C (stereo not given in full) : inactive
9. CCN(CC)CCNC(=O)c1cc(S(C)(=O)=O)ccc1OC : inactive
10. CC(C)CCCC(C)N (stereo not given) : inactive
11. CC(=O)Nc1c(I)cc(I)c(C(=O)O)c1I : inactive
12. CCCCCSCCCCC : inactive
13. CCCCCCOC(=O)CCCCC(=O)OCCCCCC : inactive
14. CN(C(=O)c1c(O)c2ccccc2n(C)c1=O)c1ccccc1 : inactive
15. FC1(F)C(F)(F)C(F)(F)C2(F)C(F)(F)C(F)(F)C(F)(F)C(F)(F)C2(F)C1(F)F (stereo not given) : inactive
16. C1OCOCO1 : inactive
17. c1ccc(CC2=NCCN2)cc1 : inactive
18. CC(=O)OCC(CCn1cnc2cnc(N)nc21)COC(C)=O : inactive
19. C=CCS(=O)(=O)O : inactive
20. O=c1[nH]c(=O)n([C@H]2C[C@H](O)[C@@H](CO)O2)cc1I : inactive
21. CC(=O)OC/C=C(\C)CC/C=C(\C)CCC=C(C)C : inactive
22. CCN1CCC[C@H]1CNC(=O)c1cc(S(N)(=O)=O)ccc1OC : inactive
23. O=C(O)CNC(=O)c1ccc([N+](=O)[O-])cc1 : inactive
24. O=[N+]([O-])c1ccc(F)cc1F : inactive
25. FC(F)OC(Cl)C(F)(F)F (stereo not given) : inactive

Data provenance: PubChem BioAssay (Tox21)
